measurement-target: T1, CD71 apical domain (human, UniProt P02786 189-383, limits assumed)
T1 construct: domain: apical domain
T1 sequence (P02786 189-383 limits assumed): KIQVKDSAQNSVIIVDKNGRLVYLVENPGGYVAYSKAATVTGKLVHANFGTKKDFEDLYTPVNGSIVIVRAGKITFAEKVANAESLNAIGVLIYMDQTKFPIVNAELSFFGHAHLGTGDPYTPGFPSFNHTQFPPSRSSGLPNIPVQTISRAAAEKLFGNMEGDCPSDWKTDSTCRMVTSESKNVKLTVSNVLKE
experiment: solution ELISA screen (luminescence)
quantity-name: RLU (RLU)

1. SEQ ID NO 262 (designed binder, not shown: small tags and cut ends) MLPAPKNLVVSRVTEDSARLSWTAPDAAFDSFYIAYAEPRPDGEAIVLHVPGSERSYDLTGLKPGTEYSVLIHGVKGGLLSSPLQAIFTT
2. SEQ ID NO 235 (designed binder, not shown: small tags and cut ends) MLPAPKNLVVSRVTEDSARLSWTAPDAAFDSFFIGYLEPQPPGEAIQLTVPGSERSYDLTGLKPGTEYNVTIQGVKGGFPSLPLSADFTT
Which value of RLU is numerically greater: that of 1 or that of 2 ? Answer format: the label of the selected item.
1
